// reported TOTAL PROTEIN for each item listed
species on record: Rattus norvegicus; test: DrugMatrix - Regimen: Daily Repeat; type: toxicity, organism-based, Sprague-Dawley; design: regimen Daily Repeat, gender Male, age 6-8 weeks; details: in vivo, po, 0 mg/kg, 120 h, tissue Plasma, route oral GAVAGE, dose level Control, time 5 day, vehicle .5 % CMC
reported.endpoint: TOTAL PROTEIN (G/DL)

compound: CC(=O)Nc1ccc2c(c1)Cc1ccccc1-2 [2-ACETYLAMINOFLUORENE]
reported.endpoint: TOTAL PROTEIN
test.result: 6.08
//
compound: COc1cc(NC(C)CCCN)c2ncccc2c1 (stereo not given) [PRIMAQUINE]
reported.endpoint: TOTAL PROTEIN
test.result: 6.55
//
compound: Cl.NC[C@H]1CC[C@H](C(=O)Oc2ccc(CCC(=O)O)cc2)CC1 [CETRAXATE HYDROCHLORIDE]
reported.endpoint: TOTAL PROTEIN
test.result: 6.1
//
compound: Nc1ccc(C(=O)O)c(O)c1 [AMINOSALICYLIC ACID]
reported.endpoint: TOTAL PROTEIN
test.result: 6.32
//
compound: NCC(CC(=O)O)c1ccc(Cl)cc1 (stereo not given) [BACLOFEN]
reported.endpoint: TOTAL PROTEIN
test.result: 6.08
